# Tested on: THP-1 cells
# methodNotes: TNFα generation assay
# Format: cell-based, human
# protocolConditions: Homo sapiens, THP-1, THP-1 cells; Table 22; read-out: IC50 in TNFα generation assay
pIC50: −log10 of the molar value.
Reported pIC50 by item:

* CC[C@@H](Nc1nc(Nc2cccc3c2cnn3C)c(C(N)=O)cc1F)[C@H](C)N | > 7.19

In: What value of pIC50 has been recorded for this entry: COc1ccc(-c2cncc(Nc3nc(N[C@@H]4CCCC[C@@H]4N)c(F)cc3C(N)=O)c2)c(F)c1 (relative stereo)
Out: 6.89 to 7.19

In: What value of pIC50 has been recorded for this entry: COc1ncc(Nc2nc(N[C@@H]3CCCC[C@@H]3N)c(F)cc2C(N)=O)c2cc[nH]c12
Out: 6.89 to 7.19

In: What value of pIC50 has been recorded for this entry: C[C@H](N)[C@@H](CC1CC1)Nc1nc(Nc2ccc3c(c2)c(C2CC2)nn3C)c(C(N)=O)cc1F
Out: 6.89 to 7.19

In: What value of pIC50 has been recorded for this entry: CCOc1nn(CC)c2ccc(Nc3nc(N[C@H](CC(C)C)[C@H](C)N)c(F)cc3C(N)=O)cc12
Out: 6.70 to 6.89

In: What value of pIC50 has been recorded for this entry: NC(=O)c1cc(F)c(N[C@@H]2CCCC[C@@H]2N)nc1Nc1ccc2ncncc2c1 (relative stereo)
Out: > 7.19

In: What value of pIC50 has been recorded for this entry: CC[C@@H](Nc1nc(Nc2cncc3ccccc23)c(C(N)=O)cc1F)[C@H](C)N
Out: > 7.19
